Tested on: CHO/CYP1A1 cells
Assay: Cytotoxicity (MTS) in CHO/CYP1A1 cells
Type: cell-based, Chinese Hamster
parameter: toxicity / activity in CYP1A1 expressing CHO cells (in words)

[[record]]
record_smiles = "COc1ccc(-c2cc(-c3ccc4c(c3)OCO4)cc(=O)[nH]2)cc1"
experimental_result = "non toxic"

[[record]]
record_smiles = "CCCOc1ccc(-c2cc(-c3ccc(OC)c(OC)c3)[nH]c(=O)c2)cc1"
experimental_result = "non toxic"

[[record]]
record_smiles = "COc1ccc(-c2cc(-c3ccc4c(c3)OCO4)cc(=O)[nH]2)cc1OC"
experimental_result = "non toxic"


----------
Each item that follows carries a reported IC50 at 96 h.
Assay: Cytotoxicity (MTS) in CHO/CYP1A1 cells
Assay type: cell-based, Chinese Hamster
Conditions: Chinese hamster; 96 h, MTS

Input COc1ccc(-c2cc(-c3ccc4c(c3)OCO4)cc(=O)[nH]2)cc1 [Compound VI] . Output IC50 at 96 h: > 100 µM

Input COc1ccc(-c2cc(-c3ccc4c(c3)OCO4)cc(=O)[nH]2)cc1OC [Compound V] . Output IC50 at 96 h: > 100 µM

Input COc1ccc(-c2cc(-c3ccc4c(c3)OCO4)cc(=O)[nH]2)c(OC)c1 [Compound III] . Output IC50 at 96 h: 0.95 µM

Input CCCOc1ccc(-c2cc(-c3ccc(OC)c(OC)c3)[nH]c(=O)c2)cc1 [Compound II] . Output IC50 at 96 h: > 50 µM

----------
Tested on: wild-type CHO cells
Assay: Cytotoxicity (MTS) in wild-type CHO cells
Type: cell-based, Chinese Hamster
Settings: Cricetulus griseus, CHO; 96 h, MTS
Each item that follows carries a reported IC50.

[[record]]
compound = "COc1ccc(-c2cc(-c3ccc4c(c3)OCO4)cc(=O)[nH]2)cc1 [Compound VI]"
experimental_result = "> 100 µM"


Input COc1ccc(-c2cc(-c3ccc4c(c3)OCO4)cc(=O)[nH]2)cc1OC [Compound V] . Output IC50: > 100 µM

Input COc1ccc(-c2cc(-c3ccc4c(c3)OCO4)cc(=O)[nH]2)c(OC)c1 [Compound III] . Output IC50: 6.11 µM

Input CCCOc1ccc(-c2cc(-c3ccc(OC)c(OC)c3)[nH]c(=O)c2)cc1 [Compound II] . Output IC50: > 50 µM
